Consider the following compounds; for each one, report its drug sensitivity score.
Tested on: Calu-3
assay_method_text: drug sensitivity score (DSS) for viability; higher = more toxic; extreme values may be limits of the assay
condition_context: 72 h

For this compound ( `O=C(NC[C@H]1CN(c2ccc(N3CCOCC3=O)cc2)C(=O)O1)c1ccc(Cl)s1` ), measured drug sensitivity score is 0

For this compound ( `CCN(c1cc(-c2ccc(CN3CCOCC3)cc2)cc(C(=O)NCc2c(C)cc(C)[nH]c2=O)c1C)C1CCOCC1` ), measured drug sensitivity score is 0

For this compound ( `NC(=O)c1nc(Nc2ccccc2)sc1NC(=O)C1CCCCC1` ), measured drug sensitivity score is 5.6

For this compound ( `Oc1cc2c(cc1O)[C@H](Cc1cccc3ccccc13)NCC2` ), measured drug sensitivity score is 0
